Would you mind telling me the reported GI50 of each entry?
# Tested on: LOX IMVI
# assay-summary: NCI tumour cell line growth inhibition, 48 h
Calls of active or inactive are those of the source. Cut-off read from the data, not from the text of the source: active = GI50 up to about 1.1 µM and inactive = higher.

Field GI50 (system: LOX IMVI) for entry CCc1nn(CN2CCN(C)CC2)c(=S)n1/N=C\c1ccc(-c2ccc([N+](=O)[O-])cc2)o1 = 59 µM (inactive)

For COc1cccc(NC(=O)c2c(N)n[nH]c2SC)c1 on LOX IMVI, measured GI50 was > 100 µM (inactive)

Recorded GI50 for COc1ccc(OC)c(CC(=O)c2ccc(O)c(C(=O)NCCc3ccc(F)cc3)c2)c1 on LOX IMVI was 6.95 µM (inactive)

* * *

# Tested on: HOP-92
# assay-summary: NCI tumour cell line growth inhibition, 48 h
Active and inactive are the calls of the source. Cut-off read from the data, not from the text of the source: active = GI50 up to about 1.1 µM and inactive = higher.
Respond with a class label; see class 1 (active), class 0 (inactive)

query: Write down the call the test reported for this compound. Item: CC1=CC[C@@H]2[C@@H](CC[C@@]2(C)O)C(C)(C)[C@H]1CC[C@@H]1[C@@]2(C)CC[C@@H](O)C(C)(C)O[C@@H]2CC[C@]1(C)O
result: class 0

query: Tell me the assay call for CC[C@H](C)[C@H]1NC(=O)[C@@H](NC(=O)[C@@H](CC(C)C)N(C)CC2CCCN2C(=O)C(C)=O)[C@@H](C)OC(=O)[C@H](Cc2ccc(OC)cc2)N(C)C(=O)C2CCCN2C(=O)[C@H](CC(C)C)NC(=O)[C@@H](C)C(=O)[C@H](C(C)C)OC(=O)C[C@@H]1O (stereo partly drawn) please.
result: class 1

query: Just curious, what result did NCS(=O)(=O)O get here?
result: class 0

query: Which result was noted for this compound in the test: NS(=O)(=O)c1ccc(N=C2C(=O)Nc3ccccc32)cc1
result: class 0

query: Hi team, can someone confirm the assay call for CC1=CC(C)(C)Nc2ccc(CSc3ccccc3)cc21 ?
result: class 0

query: For CSC1NC(c2ccccc2)=C(C#N)C(=O)N1C1OCC(OC(C)=O)C(OC(C)=O)C1OC(C)=O (stereo not drawn) , which call appears in the assay record?
result: class 0

query: Which outcome was assigned to N#Cc1sc2c(c1OC(=O)c1ccc(Cl)cc1Cl)c(=O)n(-c1ccccc1)c(=S)n2-c1ccccc1 in this test?
result: class 0

query: // outcome(item) with item = CCCCCCCC(CC(=O)NC(CO)C(=O)NC(CO)CC(C)C)OC(=O)CC(CCCCCCC)OC(=O)CC(CCCCCCC)OC1OC(C)C(O)C(OC2OC(C)C(O)C(O)C2OC(C)=O)C1O (stereo not drawn)
result: class 0

* * *

# Test system: HCC 2998
# assay-summary: NCI tumour cell line growth inhibition, 48 h
The source made the active and inactive calls. Rule as the data show it: active = GI50 up to about 1.1 µM and inactive = higher.
metric: GI50

Memo: CCOc1ccc2c(c1)C(/C(C(Cl)=C(Cl)Cl)=[N+](/[O-])OC(=O)c1ccccc1)=N2 , reported GI50: 59.2 µM (inactive)

The reported value for CCOP(=O)(OCC)/C(C#N)=C\c1ccsc1 in terms of GI50 is > 100 µM (inactive)

The measured GI50 associated with CC(C)(C)NC(NC(C)(C)C)=C(C(Cl)=C(Cl)Cl)[N+](=O)[O-] reads > 100 µM (inactive)

# GI50 (molecule: CCOC(=O)c1c(C)n(CCN2CCN(C)CC2)c2ccc(OC)cc12 ) is 16.6 µM (inactive)

Reported GI50 ( COc1ccc2c(c1)nc1n2C(c2c(F)cccc2Cl)SC1 (stereo not given) ) = 4.2 µM (inactive)

Entry under test: C=C(C)[C@H]1Cc2c(ccc3c2O[C@@H]2COc4cc(OC)c(OC)cc4[C@@H]2C3=O)O1 [ROTENONE] . Its GI50 was 0.316 µM (active)

The molecule listed as CCCCOC(=O)NC(=O)c1cn(CCCOC(=O)NCCCCCCNC(=O)OCCCn2cc(C(=O)NC(=O)OCCCC)c(=O)[nH]c2=O)c(=O)[nH]c1=O shows GI50 equal to > 100 µM (inactive)

Record COc1ccc([C@@H]2CC(=O)NCCCCNCCCN2)cc1 , field GI50: 0.0131 µM (active)

Measured GI50, Nc1cc2nc(O)c(O)nc2cc1N : > 100 µM (inactive)

# molecule CC(C)(C)c1ccc(-c2nc3ccc(Cl)cc3c(=O)o2)cc1 ; its GI50 = 12.8 µM (inactive)

Quick note, GI50 for CCCCCCCC(CC(=O)NC(CO)C(=O)NC(CO)CC(C)C)OC(=O)CC(CCCCCCC)OC(=O)CC(CCCCCCC)OC1OC(C)C(O)C(OC2OC(C)C(O)C(O)C2OC(C)=O)C1O (stereo not given) landed at 12.5 µM (inactive)

# GI50 (molecule: COC(=O)CCC(=O)c1ccc2c(c1)CC1(C2)Cc2ccc(C(=O)CCC(=O)OC)cc2C1 ) is > 100 µM (inactive)

In plain terms, CCOC(=O)NC(Nc1ccc(S(=O)(=O)Nc2ncccn2)cc1)(C(=O)OCC)C(F)(F)F (stereo not given) has a documented GI50 of > 100 µM (inactive)

// field: GI50; key: c1ccc2oc(-c3ccc(-c4nc5ccccc5o4)c4c3CC4)nc2c1 ; value = > 100 µM (inactive)

Given item Nc1ccc(/C=C/c2ccnc3ccccc23)cc1 , the value recorded as its GI50 is 28.4 µM (inactive)

For this molecule ( N#CC(NNC(=O)Cc1ccccc1)c1ccccc1O (stereo not given) ), measured GI50 is 12.7 µM (inactive)

get_value(item= COc1cccc(NC(=O)c2c(N)n[nH]c2SC)c1 , readout=GI50) returns > 100 µM (inactive)

Field GI50 (entry CCCCCCCCCCCCCCCCOC(=O)c1cc(O)cc(C(=O)OCCCCCCCCCCCCCCCC)c1 ) reads > 100 µM (inactive)

Notebook: CCN(CC)CCCCC1CCN(CC(=O)N2c3ccccc3NC(=O)CC2C)CC1 (stereo not given) , GI50 read as > 100 µM (inactive)

So for C[C@]12CC[C@H](OC(=O)Cc3ccc(N(CCCl)CCCl)cc3)CC1CC[C@@H]1C2CC[C@]2(C)NC(=O)CCC12 (stereo not given in full) , the logged GI50 turned out to be 18.7 µM (inactive)

* * *

# Test system: ACHN
# assay-summary: NCI tumour cell line growth inhibition, 48 h
Activity calls are given as the source filed them. No stated cut-off is given here; in the data, active = GI50 up to about 1.1 µM and inactive = higher.
So I've got a bunch of molecules here, and I need their GI50 values.

The value of GI50 measured for the molecule O=C1c2ccccc2C(=O)c2c(NC(=O)C3CC3)ccc(NC(=O)C3CC3)c21 turned out to be 58.2 µM (inactive)

Sure, the documented GI50 for N#Cc1c2c(c(Nc3ccc(Cl)cc3)n3c1nc1ccccc13)CCCC2 is 18.6 µM (inactive)

Summary for this molecule, CC1=NN(C(=O)CC(=O)N(C(=O)c2ccccc2Cl)c2ccc(C)cc2)C(=O)C1/N=N/c1ccc([N+](=O)[O-])cc1 (stereo not drawn) : GI50 is > 53.7 µM (inactive)

Measured GI50 of O=C(/C=C/c1ccccc1O)c1ccccc1O : > 100 µM (inactive)

In plain terms, O=C(OC[C@H]1O[C@@H](OC(=O)c2cc(O)c(O)c(O)c2)[C@H](OC(=O)c2cc(O)c(O)c(O)c2)[C@@H](OC(=O)c2cc(O)c(O)c(O)c2)[C@@H]1OC(=O)c1cc(O)c(O)c(O)c1)c1cc(O)c(O)c(O)c1 has a documented GI50 of 3.89 µM (inactive)

GI50 in this record for O=C(O)c1cc(O)nc(SCc2ccccc2)n1 : > 100 µM (inactive)

GI50 reading for CC(C)=CCC[C@H](C)[C@H]1CC[C@@H](C)c2cc(O)c(C)cc21 : 16.8 µM (inactive)

The molecule identified as COc1ccccc1NC(=O)C1=C(C)NC(C)=C(C(=O)Nc2ccccc2OC)C1c1ccco1 registered its GI50 at 6.41 µM (inactive)

* * *

# Test system: UO-31
# assay-summary: NCI tumour cell line growth inhibition, 48 h
Activity calls are given as the source filed them. Cut-off read from the data, not from the text of the source: active = GI50 up to about 1.1 µM and inactive = higher.
Classes to choose from: 1 for active, -1 for inactive

query: Tell me the assay call for NC1(C(=O)O)CCc2ccc(N(CCCl)CCCl)cc2C1 (stereo not drawn) please.
result: -1

query: Hey, what did the test say about CNC(=S)/C(=N\Nc1[nH]cnc1C(N)=O)C(N)=S ?
result: -1

query: Recorded test outcome, item COc1ccc2c(c1)nc1n2C(c2c(F)cccc2Cl)SC1 (stereo not drawn)
result: -1

query: # lookup: test call for Cc1cc2c(C(C)C)c(O)c(O)c(/C=N/c3ccccc3)c2c(O)c1-c1c(C)cc2c(C(C)C)c(O)c(O)c(/C=N/c3ccccc3)c2c1O
result: -1

query: Short answer needed: outcome of this test for Cc1cc(-c2ccccc2)cc2[n+]1CC=C2.[O-][Cl+3]([O-])([O-])[O-] ?
result: -1

query: Identify the outcome logged in this assay for the compound shown: COc1ccc(OC)c(CC(=O)c2ccc(O)c(C(=O)NCCc3ccc(F)cc3)c2)c1
result: -1

query: // outcome(item) with item = NCCC(N)C(=O)O (stereo not drawn)
result: -1

query: Per the assay record, what outcome was assigned to CC1=C(C(=O)Nc2ccc(Cl)c(Cl)c2)C(c2ccco2)C(C(=O)Nc2ccc(Cl)c(Cl)c2)=C(C)N1 ?
result: -1

query: Which outcome was entered for the compound COc1ccc(C2C(C#N)=C(S)N(C3OC(COC(C)=O)C(OC(C)=O)C(OC(C)=O)C3OC(C)=O)C(C)=C2C(C)=O)cc1 (stereo not drawn) in this test?
result: -1

query: For Cc1ccc(NC(=O)CC(=O)N2N=C(N3CCCCC3)CC2c2ccccc2)cc1 (stereo not drawn) , which call appears in the assay record?
result: -1

query: Just curious, what result did CCCCCN(CCCCC)C(=O)[C@H](CCC(=O)O)NC(=O)c1cc2ccccc2[nH]1 get here?
result: -1

query: What did this assay record as the result for O=C1c2ccccc2C(=O)c2c(NC(=O)C3CC3)ccc(NC(=O)C3CC3)c21 ?
result: -1

query: Which outcome was assigned to C1COCCSC2=C(SCCO1)SC(=C1SC3=C(SCCOCCOCCS3)S1)S2 in this test?
result: -1

query: Given CCOC(=O)C1CCC(=O)N1C(=O)c1ccccc1 (stereo not drawn) , state the outcome it received in this test.
result: -1

query: How did this test come out for O=C(CSc1nc2ccc(Cl)cc2c(=O)n1-c1ccccc1)N/N=C1\C(=O)Nc2ccc(F)cc21 ?
result: 1

query: Query: recorded result category for COc1cc2c(c(OC)c1OC)C(=O)[C@H](O)[C@H]2NC(N)=O in this test
result: -1

query: Entry O=C1/C(=C/c2ccccc2Cl)COc2ccc(Br)cc21 : call = ?
result: -1

query: Hi, do you know how C=C(C)[C@H]1Cc2c(ccc3c2O[C@@H]2COc4cc(OC)c(OC)cc4[C@@H]2C3=O)O1 [ROTENONE] came out in this test?
result: 1

query: # fetch the recorded call for Cc1cc(=O)oc2c(CNC(Cc3ccccc3)C(=O)O)c(O)ccc12 (stereo not drawn) here
result: -1

query: Called result for C=C(Br)C[N+]12CN3CN(CN(C3)C1)C2
result: -1

query: What did the test return for c1n[nH]cc1C12C3C4C5C3C1C5C42 (stereo not drawn) ?
result: -1

query: Recorded test call requested for Cc1cc(C)c([S@@](=O)O[C@@H]2[C@H]3OC(C)(C)O[C@H]3O[C@@H]2[C@H]2COC(C)(C)O2)c(C)c1
result: -1

query: Check the results log: what was the call for CC(=O)Nc1ccc(-c2nc3ccccc3s2)cc1Cl ?
result: -1

query: Check the results log: what was the call for O=S(=O)(O)c1ccc2c(/N=N/c3c(O)ccc4ccccc34)cccc2c1 ?
result: -1

query: Called result for N=C(N)N/N=C/c1c(-c2ccc(Cl)c(Cl)c2Cl)nc2sccn12
result: -1

query: Tell me the recorded outcome of this test for CC[S+]([O-])c1c2cc(OC)ccc2nc2ccc(OC)cc12 (stereo not drawn) .
result: -1

query: How did this test come out for Cc1ccc2c(c1)C(=O)C1(Cc3ccccc3C1=O)C2 (stereo not drawn) ?
result: -1

query: Can you look up the reported call for Clc1ccc2c(c1)CC1C[N+]3=C(CCCCC3)C1=C2 (stereo not drawn) for me?
result: -1

query: Recorded test call requested for COc1ccc(OC)c(N2C(=O)/C(=C\c3ccccc3)SC2c2cc(OC)c(OC)c(OC)c2)c1 (stereo not drawn)
result: -1

query: Identify the outcome logged in this assay for the compound shown: COC(=O)CCC(C)C1CCC2C3C(C[C@H](OC(C)=O)[C@]12C)[C@@]1(C)CCC2(C[C@H]1C[C@H]3OC(C)=O)OOC1(CC[C@]3(C)C4C[C@H](OC(C)=O)[C@]5(C)C(C(C)CCC(=O)OC)CCC5C4[C@H](OC(C)=O)C[C@@H]3C1)OO2 (stereo partly drawn)
result: -1

query: Can you look up the reported call for Cc1ccc(-c2nc(-c3nccc4ccccc34)oc2-c2ccccc2)cc1 for me?
result: -1

query: So what was the verdict on CC[C@H](C)[C@H]1NC(=O)[C@@H](NC(=O)[C@@H](CC(C)C)N(C)CC2CCCN2C(=O)C(C)=O)[C@@H](C)OC(=O)[C@H](Cc2ccc(OC)cc2)N(C)C(=O)C2CCCN2C(=O)[C@H](CC(C)C)NC(=O)[C@@H](C)C(=O)[C@H](C(C)C)OC(=O)C[C@@H]1O (stereo partly drawn) in this test?
result: 1

query: Outcome? CC(C)C1CC(CO)(CNc2nc(N)nc(Cl)c2/C=N\O)C1 (stereo not drawn)
result: -1

query: I'd appreciate the recorded outcome for Oc1ccccc1-c1cnnc(-c2ccccc2O)c1 from this test.
result: -1

query: Any idea what this test logged for C=CC(C)(O)CCC1C(=C)C(O)CC2C(C)(C)CCCC12C (stereo not drawn) ?
result: -1

query: Outcome? CCc1ccc(/C=C\c2cc(OC)c(OC)c(OC)c2)cc1
result: 1

query: Please share the test call associated with CC(C)N(/C(F)=N\C(=O)Nc1ccccc1C(F)(F)F)C(C)C .
result: -1

query: Recorded test outcome, item CO[C@@H](c1ccccc1)[C@H](O)[C@@](O)(c1ccccc1)P(=O)(OC)OC
result: -1
